ASSAYED SYSTEM: KRAS (Homo sapiens)
Construct: endogenous in cells; host or cells: KE39 (KRAS amplified) cells
Sequence (P01116 1-188 isoform P01116-2): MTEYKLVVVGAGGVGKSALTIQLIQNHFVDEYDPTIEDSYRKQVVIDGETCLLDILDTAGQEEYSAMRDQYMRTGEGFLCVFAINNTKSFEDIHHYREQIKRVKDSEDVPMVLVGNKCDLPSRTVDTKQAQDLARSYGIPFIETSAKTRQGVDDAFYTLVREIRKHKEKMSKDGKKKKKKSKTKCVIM
MEASUREMENT PROTOCOL: KRASamp MSD assay
Format: cell-based
CONDITION NOTES: KE39 (KRAS amplified) cells, treated with test compounds for 24 hr, MSD readout of KRAS degradation
The entries below are paired with their reported DC50.

// worked examples, DC50 included
The value of DC50 measured for the compound CCc1c(F)ccc2cc(O)cc(-c3ncc4c(N5CCC[C@@](C)(O)C5)nc(OC[C@@]56CCCN5[C@H](COC(=O)N5CC7(CN(CC8CCN(c9ccc%10c(c9)n(C)c(=O)n%10C9CCC(=O)NC9=O)CC8)C7)C5)CC6)nc4c3F)c12 (some centres unmarked) [Compound 462] turned out to be 1 to 10 nM

Consider CCc1c(F)ccc2cc(O)cc(-c3ncc4c(N5CCCC(C)(CO)C5)nc(OC[C@@]56CCCN5[C@H](COC(=O)N5CCC(CN7CCC(c8ccc9c(c8)n(C)c(=O)n9C8CCC(=O)NC8=O)CC7)CC5)CC6)nc4c3F)c12 (some centres unmarked) [Compound 341] . Its measured DC50 is ≥ 10 nM

The compound identified as CCc1c(F)ccc2cc(O)cc(-c3ncc4c(N5CCC[C@@](C)(O)C5)nc(OC[C@@]56CCCN5[C@H](COC(=O)N5CCC(C#Cc7ccc8c(c7)n(C)c(=O)n8C7CCC(=O)NC7=O)CC5)CC6)nc4c3F)c12 (some centres unmarked) [Compound 404] registered its DC50 at 1 to 10 nM

Looking up C#Cc1c(F)ccc2cc(O)cc(-c3ncc4c(N5CCCC(F)(F)C5)nc(OC[C@@]56CCCN5[C@H](COC(=O)N5CCC(CN7CCC(c8ccc9c(c8)n(C)c(=O)n9C8CCC(=O)NC8=O)CC7)CC5)CC6)nc4c3F)c12 (some centres unmarked) [Compound 124] , I found its DC50 recorded as < 1 nM

Entry under test: C#Cc1c(F)ccc2cc(O)cc(-c3ncc4c(N5CCC[C@@](C)(O)C5)nc(OC[C@@]56CCCN5[C@H](COC(=O)N5CCC7(CCC7CN7CCC(c8ccc9c(c8)n(C)c(=O)n9C8CCC(=O)NC8=O)CC7)CC5)CC6)nc4c3F)c12 (some centres unmarked) [Compound 327] . Its DC50 was ≥ 10 nM

More entries:
For reference, reported DC50 for CCc1c(F)ccc2cc(O)cc(-c3ncc4c(N5CCC[C@@](C)(O)C5)nc(OC[C@@]56CCCN5[C@H](COC(=O)N5CCC(CN7CCC(c8ccc9c(C%10CCC(=O)NC%10=O)nn(C)c9c8F)CC7)CC5)CC6)nc4c3F)c12 (some centres unmarked) [Compound 100] stands at < 1 nM

# DC50 of C#Cc1c(F)ccc2cc(O)cc(-c3ccc4c(N5CCC[C@@](C)(O)C5)nc(OCC5(CN6CCC(CN7CCC(c8ccc9c(c8)n(C)c(=O)n9C8CCC(=O)NC8=O)CC7)CC6)CC5)nc4c3F)c12 (some centres unmarked) [Compound 13] = < 1 nM

Please fill in: DC50 reported for CCc1c(F)ccc2cc(O)cc(-c3ncc4c(N5CCC[C@@](C)(O)C5)nc(OC[C@@]56CCCN5[C@H](CN5CCC(CN7CCC(Cc8ccc9c(c8)n(C)c(=O)n9C8CCC(=O)NC8=O)CC7)CC5)CC6)nc4c3F)c12 (some centres unmarked) [Compound 436] = 1 to 10 nM
